Molecular target: T1, human FLT3 on AML5 cells (human, UniProt P36888 27-993)
T1 sequence (looked up): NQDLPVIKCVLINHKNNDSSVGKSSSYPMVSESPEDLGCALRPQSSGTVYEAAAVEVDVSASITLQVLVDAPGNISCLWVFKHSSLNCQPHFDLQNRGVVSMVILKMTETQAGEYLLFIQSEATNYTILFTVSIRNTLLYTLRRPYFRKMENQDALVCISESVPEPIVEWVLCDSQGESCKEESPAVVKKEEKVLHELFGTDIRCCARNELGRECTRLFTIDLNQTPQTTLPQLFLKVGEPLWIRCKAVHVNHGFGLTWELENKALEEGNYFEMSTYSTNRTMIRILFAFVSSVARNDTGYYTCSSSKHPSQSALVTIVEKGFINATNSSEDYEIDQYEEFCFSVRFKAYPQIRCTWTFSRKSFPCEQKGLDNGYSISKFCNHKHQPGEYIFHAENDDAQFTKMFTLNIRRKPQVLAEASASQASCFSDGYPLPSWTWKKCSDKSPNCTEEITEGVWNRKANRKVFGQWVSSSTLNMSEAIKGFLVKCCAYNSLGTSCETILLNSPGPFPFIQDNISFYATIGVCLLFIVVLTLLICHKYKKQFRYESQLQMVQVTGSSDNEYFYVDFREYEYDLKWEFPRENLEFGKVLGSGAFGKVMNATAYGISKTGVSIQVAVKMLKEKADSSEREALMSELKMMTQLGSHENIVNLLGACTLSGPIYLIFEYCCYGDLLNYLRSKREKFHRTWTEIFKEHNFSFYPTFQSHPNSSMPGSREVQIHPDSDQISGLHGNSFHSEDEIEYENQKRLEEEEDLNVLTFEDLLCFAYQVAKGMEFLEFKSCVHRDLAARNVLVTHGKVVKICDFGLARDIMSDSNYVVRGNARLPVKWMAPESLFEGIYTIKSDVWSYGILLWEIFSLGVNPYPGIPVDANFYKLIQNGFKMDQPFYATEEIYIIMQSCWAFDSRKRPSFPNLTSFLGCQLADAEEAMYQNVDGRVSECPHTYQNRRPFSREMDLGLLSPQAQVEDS
Assay: cell-based or functional assay
Readings of EC50 (nM), AML5 Proliferation Assay for the listed binders
MEASUREMENT TYPE: EC50 (nM), AML5 Proliferation Assay

>>> experimental_value("human FLT3-ligand human hingeless IgG1 fusion protein (SEQ ID NO:1) (Fc fusion, Made in Expi293 or ExpiCHO; also called FLT3L ECD-hingeless hG1; hFLT3L ECD) TQDCSFQHSPISSDFAVKIRELSDYLLQDYPVTVASNLQDEELCGGLWRLVLAQRWMERLKTVAGSKMQGLLERVNTEIHFVTKCAFQPPPSCLRFVQTNISRLLQETSEQLVALKPWITRQNFSRCLELQCQPDSSTLPPPWSPRPLEATAPTAPQGGPSVFLFPPKPKDTLMISRTPEVTCVVVDVSHEDPEVKFNWYVDGVEVHNAKTKPREEQYNSTYRVVSVLTVLHQDWLNGKEYKCKVSNKALPAPIEKTISKAKGQPREPQVYTLPPSREEMTKNQVSLTCLVKGFYPSDIAVEWESNGQPENNYKTTPPVLDSDGSFFLYSKLTVDKSRWQQGNVFSCSVMHEALHNHYTQKSLSLSPGK")
0.08
>>> experimental_value("human FLT3-ligand (Δ5 amino acid) human hingeless IgG1 fusion protein (SEQ ID NO:2) (Fc fusion, also called FLT3L ECD (Δ C-term 5aa (PTAPQ))-hingeless hG1) TQDCSFQHSPISSDFAVKIRELSDYLLQDYPVTVASNLQDEELCGGLWRLVLAQRWMERLKTVAGSKMQGLLERVNTEIHFVTKCAFQPPPSCLRFVQTNISRLLQETSEQLVALKPWITRQNFSRCLELQCQPDSSTLPPPWSPRPLEATAGGPSVFLFPPKPKDTLMISRTPEVTCVVVDVSHEDPEVKFNWYVDGVEVHNAKTKPREEQYNSTYRVVSVLTVLHQDWLNGKEYKCKVSNKALPAPIEKTISKAKGQPREPQVYTLPPSREEMTKNQVSLTCLVKGFYPSDIAVEWESNGQPENNYKTTPPVLDSDGSFFLYSKLTVDKSRWQQGNVFSCSVMHEALHNHYTQKSLSLSPGK")
0.083
>>> experimental_value("human FLT3-ligand (Δ10 amino acid) human hingeless IgG1 fusion protein (SEQ ID NO:7) (Fc fusion) TQDCSFQHSPISSDFAVKIRELSDYLLQDYPVTVASNLQDEELCGGLWRLVLAQRWMERLKTVAGSKMQGLLERVNTEIHFVTKCAFQPPPSCLRFVQTNISRLLQETSEQLVALKPWITRQNFSRCLELQCQPDSSTLPPPWSPRPGGPSVFLFPPKPKDTLMISRTPEVTCVVVDVSHEDPEVKFNWYVDGVEVHNAKTKPREEQYNSTYRVVSVLTVLHQDWLNGKEYKCKVSNKALPAPIEKTISKAKGQPREPQVYTLPPSREEMTKNQVSLTCLVKGFYPSDIAVEWESNGQPENNYKTTPPVLDSDGSFFLYSKLTVDKSRWQQGNVFSCSVMHEALHNHYTQKSLSLSPGK")
0.071
>>> experimental_value("human FLT3-ligand (S128A/S151A) human hingeless IgG1 fusion protein (SEQ ID NO:5) (Fc fusion, also called Aglyco-FLT3L ECD (S128A/S151A) hingeless hG1) TQDCSFQHSPISSDFAVKIRELSDYLLQDYPVTVASNLQDEELCGGLWRLVLAQRWMERLKTVAGSKMQGLLERVNTEIHFVTKCAFQPPPSCLRFVQTNIARLLQETSEQLVALKPWITRQNFARCLELQCQPDSSTLPPPWSPRPLEATAPTAPQGGPSVFLFPPKPKDTLMISRTPEVTCVVVDVSHEDPEVKFNWYVDGVEVHNAKTKPREEQYNSTYRVVSVLTVLHQDWLNGKEYKCKVSNKALPAPIEKTISKAKGQPREPQVYTLPPSREEMTKNQVSLTCLVKGFYPSDIAVEWESNGQPENNYKTTPPVLDSDGSFFLYSKLTVDKSRWQQGNVFSCSVMHEALHNHYTQKSLSLSPGK")
0.078

These entries and their values trace back to patent US20220049021A1.
